assay: CSF pharmacokinetics substudy; format: in vivo, human; conditions: male, human, CSF, oral, 4 mg
ENDPOINT: concentration at 2 h (ng/mL)
Please reply with the bare figure in ng/mL and do not write the unit itself.

Given Nc1nnc(CN[C@@H]2C[C@H]2c2ccc(OCc3ccccc3)cc2)o1 [vafidemstat] , respond with its concentration at 2 h. 0.387

---

assay: Plasma pharmacokinetics, single ascending dose; assay type: in vivo, human; conditions: male, human, plasma, po, 0.2 mg
ENDPOINT: AUC(0-inf) (ng·h/mL)
Please reply with the bare figure in ng·h/mL and do not write the unit itself.

Given "Nc1nnc(CN[C@@H]2C[C@H]2c2ccc(OCc3ccccc3)cc2)o1" , respond with its AUC(0-inf). 30.9

---

test: CSF pharmacokinetics substudy; type: in vivo, human; conditions: male, human, plasma (unbound), oral, 4 mg
ENDPOINT: concentration at 12 h (ng/mL)
Please reply with the bare figure in ng/mL and do not write the unit itself.

Given "Nc1nnc(CN[C@@H]2C[C@H]2c2ccc(OCc3ccccc3)cc2)o1" , respond with its concentration at 12 h. 0.609

---

assay: Plasma pharmacokinetics, multiple ascending dose; assay type: in vivo, human; settings: both, human, plasma, oral, 0.2 mg/day, AUC0–t (D1), MAD 0.2 mg/day, day 1, young; mean (CV %)
ENDPOINT: AUC(0-t) (ng·h/mL)
Please reply with the bare figure in ng·h/mL and do not write the unit itself.

Given Nc1nnc(CN[C@@H]2C[C@H]2c2ccc(OCc3ccccc3)cc2)o1 [vafidemstat] , respond with its AUC(0-t). 18.7

---

experiment: Plasma pharmacokinetics, multiple ascending dose; format: in vivo, human; conditions: both, human, plasma, oral, 2.5 mg/day, AUC0–t,ss (D5), MAD 2.5 mg/day, day 5, young; mean (CV %)
ENDPOINT: AUC(0-t) (ng·h/mL)
Please reply with the bare figure in ng·h/mL and do not write the unit itself.

Given Nc1nnc(CN[C@@H]2C[C@H]2c2ccc(OCc3ccccc3)cc2)o1 [vafidemstat] , respond with its AUC(0-t). 634

---

assay: Plasma pharmacokinetics, multiple ascending dose; type: in vivo, human; details: both, human, plasma, oral, 1.5 mg/day, AUC0–t (D1), MAD 1.5 mg/day, day 1, young; mean (CV %)
ENDPOINT: AUC(0-t)
Write your answer as a measured quantity: the number, then the unit.

Given Nc1nnc(CN[C@@H]2C[C@H]2c2ccc(OCc3ccccc3)cc2)o1 [vafidemstat] , respond with its AUC(0-t). 138 ng·h/mL

---

experiment: Plasma pharmacokinetics, single ascending dose; assay type: in vivo, human; details: male, human, plasma, po, 2.5 mg
ENDPOINT: Vd/F (L)
Please reply with the bare figure in L and do not write the unit itself.

Given "Nc1nnc(CN[C@@H]2C[C@H]2c2ccc(OCc3ccccc3)cc2)o1" , respond with its Vd/F. 203

---

test: Plasma pharmacokinetics, single ascending dose; format: in vivo, human; details: male, human, plasma, po, 0.6 mg
ENDPOINT: Vd/F

Given Nc1nnc(CN[C@@H]2C[C@H]2c2ccc(OCc3ccccc3)cc2)o1 [vafidemstat] , respond with its Vd/F. 256 L

---

experiment: Plasma pharmacokinetics, multiple ascending dose; assay type: in vivo, human; conditions: both, human, plasma, oral, 2.5 mg/day, Cmax,ss (D5), MAD 2.5 mg/day, day 5, young; mean (CV %)
ENDPOINT: Cmax
Write your answer as a measured quantity: the number, then the unit.

Given "Nc1nnc(CN[C@@H]2C[C@H]2c2ccc(OCc3ccccc3)cc2)o1" , respond with its Cmax. 49.9 ng/mL

---

test: Plasma pharmacokinetics, single ascending dose; type: in vivo, human; conditions: male, human, plasma, po, 1.5 mg
ENDPOINT: AUC(0-t)
Write your answer as a measured quantity: the number, then the unit.

Given Nc1nnc(CN[C@@H]2C[C@H]2c2ccc(OCc3ccccc3)cc2)o1 [vafidemstat] , respond with its AUC(0-t). 297 ng·h/mL

---

assay: Plasma pharmacokinetics, multiple ascending dose; type: in vivo, human; conditions: both, human, plasma, oral, 0.2 mg/day, Cmax (D1), MAD 0.2 mg/day, day 1, young; mean (CV %)
ENDPOINT: Cmax (ng/mL)
Please reply with the bare figure in ng/mL and do not write the unit itself.

Given Nc1nnc(CN[C@@H]2C[C@H]2c2ccc(OCc3ccccc3)cc2)o1 [vafidemstat] , respond with its Cmax. 1.28

---

assay: Plasma pharmacokinetics, multiple ascending dose; assay type: in vivo, human; conditions: both, human, plasma, oral, 1 mg/day
ENDPOINT: Tmax (h)
Please reply with the bare figure in h and do not write the unit itself.

Given Nc1nnc(CN[C@@H]2C[C@H]2c2ccc(OCc3ccccc3)cc2)o1 [vafidemstat] , respond with its Tmax. 1.83

---

test: Plasma pharmacokinetics, single ascending dose; assay type: in vivo, human; conditions: male, human, plasma, po, 0.2 mg
ENDPOINT: Vd/F

Given "Nc1nnc(CN[C@@H]2C[C@H]2c2ccc(OCc3ccccc3)cc2)o1" , respond with its Vd/F. 260 L

---

test: Plasma pharmacokinetics, multiple ascending dose; type: in vivo, human; conditions: both, human, plasma, oral, 0.2 mg/day
ENDPOINT: Tmax (h)
Please reply with the bare figure in h and do not write the unit itself.

Given "Nc1nnc(CN[C@@H]2C[C@H]2c2ccc(OCc3ccccc3)cc2)o1" , respond with its Tmax. 5.1

---

experiment: CSF pharmacokinetics substudy; format: in vivo, human; conditions: male, human, CSF, oral, 2 mg
ENDPOINT: concentration at 2 h (ng/mL)
Please reply with the bare figure in ng/mL and do not write the unit itself.

Given "Nc1nnc(CN[C@@H]2C[C@H]2c2ccc(OCc3ccccc3)cc2)o1" , respond with its concentration at 2 h. 0.239

---

assay: Plasma pharmacokinetics, single ascending dose; assay type: in vivo, human; details: male, human, plasma, po, 4 mg
ENDPOINT: half-life (h)
Please reply with the bare figure in h and do not write the unit itself.

Given "Nc1nnc(CN[C@@H]2C[C@H]2c2ccc(OCc3ccccc3)cc2)o1" , respond with its half-life. 20

---

test: Plasma pharmacokinetics, single ascending dose; type: in vivo, human; details: male, human, plasma, po, 2.5 mg
ENDPOINT: Tmax (h)
Please reply with the bare figure in h and do not write the unit itself.

Given "Nc1nnc(CN[C@@H]2C[C@H]2c2ccc(OCc3ccccc3)cc2)o1" , respond with its Tmax. 1.58

---

test: Plasma pharmacokinetics, single ascending dose; assay type: in vivo, human; details: male, human, plasma, po, 4 mg
ENDPOINT: AUC(0-inf) (ng·h/mL)
Please reply with the bare figure in ng·h/mL and do not write the unit itself.

Given Nc1nnc(CN[C@@H]2C[C@H]2c2ccc(OCc3ccccc3)cc2)o1 [vafidemstat] , respond with its AUC(0-inf). 568

---

test: Plasma pharmacokinetics, single ascending dose; assay type: in vivo, human; conditions: male, human, plasma, po, 4 mg
ENDPOINT: Tmax (h)
Please reply with the bare figure in h and do not write the unit itself.

Given Nc1nnc(CN[C@@H]2C[C@H]2c2ccc(OCc3ccccc3)cc2)o1 [vafidemstat] , respond with its Tmax. 1.71

---

test: Plasma pharmacokinetics, multiple ascending dose; type: in vivo, human; conditions: both, human, plasma, oral, 2.5 mg/day, t½, MAD older adult 2.5 mg/day, 5 days; mean (CV %)
ENDPOINT: half-life
Write your answer as a measured quantity: the number, then the unit.

Given "Nc1nnc(CN[C@@H]2C[C@H]2c2ccc(OCc3ccccc3)cc2)o1" , respond with its half-life. 23 h

---

assay: Plasma pharmacokinetics, single ascending dose; type: in vivo, human; details: male, human, plasma, po, 2.5 mg
ENDPOINT: Cmax

Given "Nc1nnc(CN[C@@H]2C[C@H]2c2ccc(OCc3ccccc3)cc2)o1" , respond with its Cmax. 18.8 ng/mL

---

assay: Plasma pharmacokinetics, single ascending dose; type: in vivo, human; conditions: male, human, plasma, po, 2.5 mg
ENDPOINT: AUC(0-t)
Write your answer as a measured quantity: the number, then the unit.

Given Nc1nnc(CN[C@@H]2C[C@H]2c2ccc(OCc3ccccc3)cc2)o1 [vafidemstat] , respond with its AUC(0-t). 402 ng·h/mL

---

experiment: CSF pharmacokinetics substudy; type: in vivo, human; conditions: male, human, plasma (unbound), oral, 4 mg
ENDPOINT: concentration at 6 h (ng/mL)
Please reply with the bare figure in ng/mL and do not write the unit itself.

Given "Nc1nnc(CN[C@@H]2C[C@H]2c2ccc(OCc3ccccc3)cc2)o1" , respond with its concentration at 6 h. 0.871

---

experiment: CSF pharmacokinetics substudy; type: in vivo, human; conditions: male, human, CSF / unbound plasma, oral, 4 mg
ENDPOINT: Kp at 6 h
API note: the answer field is a bare number with no unit suffix.

Given "Nc1nnc(CN[C@@H]2C[C@H]2c2ccc(OCc3ccccc3)cc2)o1" , respond with its Kp at 6 h. 0.83

---

experiment: CSF pharmacokinetics substudy; type: in vivo, human; conditions: male, human, CSF, oral, 2 mg
ENDPOINT: concentration at 6 h (ng/mL)
Please reply with the bare figure in ng/mL and do not write the unit itself.

Given "Nc1nnc(CN[C@@H]2C[C@H]2c2ccc(OCc3ccccc3)cc2)o1" , respond with its concentration at 6 h. 0.181

Taken from paper PMC7985749.
